target: HLA-A*0201 (human); conditions: remark: other sources report otherwise

{"BINDER": "SLHLLSNDMCA [Peptide 1419.14, HuK2.175]", "READING UNIT": "nM", "IC50": 72}
{"BINDER": "DLMLLRLSEPV [Peptide 1419.13, HuK2.120.V11]", "READING UNIT": "nM", "IC50": 50}
